The origin of these recorded values is patent US20110275122A1.

# experimental system: human mpl receptor (human) (UniProt P40238)
# measurement protocol: cell-based or functional assay
Where no end group is shown, it is not given here.
// classify(record): look up Pb EC50 in ranges label 0: < 1 ng/mL; label 1: ≥ 1 ng/mL and < 2 ng/mL; label 2: ≥ 2 ng/mL

Bin this entry: LTMEGPTLRHWLAARATR (Fc fusion, not shown: a dimerising Fc or GST, also: Fc fusion, side and linker not given here) [SEQ ID NO: 225 (TPO-mimetic fusion protein of Table 13)]
label 2

Bin this entry: CSSGGPTLREWQQCSRAQ (Fc fusion, part only; not given: Fc and insertion site, part only, cysteine pairing not given here; also: peptide inserted in a loop of an Fc) [Fc-Loop-(SEQ ID NO: 454)]
label 0

Bin this entry: QGCSWGGPTLKNWLQCVRAKHS (Fc fusion, not shown: a dimerising Fc or GST, cysteine pairing not given here; also: fused to an Fc molecule, side and linker not given here) [SEQ ID NO: 11 (TPO-mimetic fusion protein of Table 13)]
label 2

Bin this entry: QGCSSGGPTLREWQQCRRMQHS (Fc fusion, not shown: a dimerising Fc or GST, cysteine pairing not given here; also: fused to an Fc molecule, side and linker not given here) [SEQ ID NO: 9 (TPO-mimetic fusion protein of Table 13)]
label 0

Bin this entry: YMMEGPTLRHWLATRAGR (Fc fusion, not shown: a dimerising Fc or GST, also: Fc fusion, side and linker not given here) [SEQ ID NO: 103 (TPO-mimetic fusion protein of Table 13)]
label 0

Bin this entry: CSSGGPTLREWQQCQRAQ (Fc fusion, part only; not given: Fc and insertion site, part only, cysteine pairing not given here; also: peptide inserted in a loop of an Fc) [Fc-Loop-(SEQ ID NO: 455)]
label 0

Bin this entry: WPMEGPTLRHWLAARAAR (Fc fusion, not shown: a dimerising Fc or GST, also: Fc fusion, side and linker not given here) [SEQ ID NO: 171 (TPO-mimetic fusion protein of Table 13)]
label 1

Bin this entry: AWMEGPTLRHWLAARAAY (Fc fusion, not shown: a dimerising Fc or GST, also: Fc fusion, side and linker not given here) [SEQ ID NO: 149 (TPO-mimetic fusion protein of Table 13)]
label 1

Bin this entry: ICTEGCTLRLWLAERSRV (Fc fusion, not shown: a dimerising Fc or GST, cysteine pairing not given here; also: Fc fused at N- or C-terminus, side and linker not given here) [SEQ ID NO: 241 (TPO-mimetic fusion protein of Table 13)]
label 1

Bin this entry: DAIEGPTLRLWLEARRKQ (Fc fusion, not shown: a dimerising Fc or GST, also: Fc fusion, side and linker not given here) [SEQ ID NO: 139 (TPO-mimetic fusion protein of Table 13)]
label 1

Bin this entry: CSSGGPTLREWQQCGRAQ (Fc fusion, part only; not given: Fc and insertion site, part only, cysteine pairing not given here; also: peptide inserted in a loop of an Fc) [Fc-Loop-(SEQ ID NO: 456)]
label 2

Bin this entry: HPIEGPTLRLWLAARARA (Fc fusion, not shown: a dimerising Fc or GST, also: Fc fusion, side and linker not given here) [SEQ ID NO: 163 (TPO-mimetic fusion protein of Table 13)]
label 2

Bin this entry: SAIEGPTLRHWLAWRAML (Fc fusion, not shown: a dimerising Fc or GST, also: Fc fusion, side and linker not given here) [SEQ ID NO: 117 (TPO-mimetic fusion protein of Table 13)]
label 1

Bin this entry: WVMEGPTLRHWLAARASL (Fc fusion, not shown: a dimerising Fc or GST, also: Fc fusion, side and linker not given here) [SEQ ID NO: 123 (TPO-mimetic fusion protein of Table 13)]
label 2

Bin this entry: YYLEGPTLRHWLAARAYL (Fc fusion, not shown: a dimerising Fc or GST, also: Fc fusion, side and linker not given here) [SEQ ID NO: 128 (TPO-mimetic fusion protein of Table 13)]
label 1
